The following sequences are listed with their measured folding enthalpy values.
# protocol-summary: folding enthalpy; higher = less favourable; fluorescence melt of hairpins on a sequencing array, two-state fit
# particulars: sodium 0.088 M
Could you give me the number in kcal/mol? Just the number is fine.

Solved cases below.
- GGGATTCGAAAGAACCC (((.(((....)))))): -25.5
- GTTCGCCGAAAGGCAAAC (((.(((....))).))): -18.1
- TATTGGAAACAATA (((((....))))): -5.94
- GATCAAAAAGTTGATC ((((((....)))))): -14.1

Prompt: Find the recorded folding enthalpy belonging to GCTTAAGGAAACTTAAGC (((((((....))))))) and report it.
Response: -39.6

Prompt: Entry GTGTATCCGAAAGGACAC (((..(((....)))))) : reported folding enthalpy = ?
Response: -21.6

Prompt: Which folding enthalpy value belongs to CGGGTCGGAAACGACCG (((.(((....)))))) ?
Response: -11.4
